Taken from patent US9783505B2.

// reported IC50 for each item listed
target: His-PKC-theta (Homo sapiens); construct: His; purchased Invitrogen; test: PKC-theta Assay (384-well time resolved fluorescence, IMAP TR-FRET); assay type: biochemical; settings: Table 2; read-out: Act. Level (IC50 in the PKC-theta Assay)

Completed entries (count: 6):
INSERT INTO assay_data (molecule, meas_value) VALUES
  ('CC1(C)[C@@H](O)C[C@H]1Nc1nc(NCCc2ccccc2O)ncc1C#N', '800 to 2000 nM'),
  ('COc1ccc(C(CNc2ncc(C#N)c(N[C@@H]3CC[C@H](O)C(C)(C)C3)n2)N2CCOCC2)cc1 (some centres unmarked)', '2000 to 10000 nM'),
  ('CC1(C)[C@H](Nc2nc(NCCc3cccc(Cl)c3)ncc2C#N)C[C@H]1C(N)=O', '2000 to 10000 nM'),
  ('CC1(C)[C@@H](O)C[C@H]1Nc1nc(NCCc2ccccc2OC(F)F)ncc1C#N', '100 to 800 nM'),
  ('CC1(C)C[C@H](Nc2nc(NCCc3ccc(S(C)(=O)=O)cc3)ncc2C#N)CC[C@@H]1O', '100 to 800 nM'),
  ('CC1(C)[C@@H](O)C[C@H]1Nc1nc(NCCc2ccc(C#N)c(F)c2)ncc1C#N', '100 to 800 nM');

Prompt: Suppose we examine the molecule N#Cc1ccc(CCNc2ncc(C#N)c(N[C@H]3C[C@@H](C(N)=O)C3)n2)cc1 ; what IC50 value has been reported?
Completion: 2000 to 10000 nM

Prompt: And CC1(C)[C@@H](O)C[C@H]1Nc1nc(NCCc2ccccc2)ncc1C#N ?
Completion: 100 to 800 nM

Prompt: Repeat with Cc1nnnn1-c1ccccc1CNc1ncc(C(F)(F)F)c(N[C@H]2CC[C@@H](O)C(C)(C)C2)n1
Completion: 2000 to 10000 nM

Prompt: // repeat for N#Cc1cnc(NCCc2ccc(F)c(Cl)c2)nc1N[C@H]1CC[C@@H](C(N)=O)CC1 and report
Completion: < 100 nM

Prompt: Another molecule to check: CC1(C)[C@@H](O)C[C@H]1Nc1nc(NCCc2cc(C(F)(F)F)cc(C(F)(F)F)c2)ncc1C#N
Completion: 100 to 800 nM

Prompt: Now this one: CC1(C)[C@@H](O)C[C@H]1Nc1nc(NCCc2ccc(C#N)c(Br)c2)ncc1C#N
Completion: 100 to 800 nM

###

target: His-PKC-theta (Homo sapiens); construct: His; purchased Invitrogen; experiment: PKC-theta Assay (384-well time resolved fluorescence, IMAP TR-FRET); format: biochemical; conditions: read-out: Act. Level (IC50 in the PKC-theta Assay)
pIC50: −log10 of the molar value.
MEASUREMENT_NAME: pIC50

Below: 3 compounds and their reported pIC50.
INSERT INTO assay_data (compound, measurement_name, meas_value) VALUES
  ('Cc1ccc(CCNc2ncc(C#N)c(N[C@@H]3C[C@H](O)C3(C)C)n2)cn1', 'pIC50', '5.00 to 5.70'),
  ('Cc1nc(CCNc2ncc(C#N)c(N[C@@H]3CC(O)C3(C)C)n2)no1 (stereo partly drawn)', 'pIC50', '5.00 to 5.70'),
  ('CC(C)(CO)CNc1nc(NCc2cnccc2C(F)(F)F)ncc1C#N', 'pIC50', '6.10 to 7.00');

Prompt: Requested read-out: pIC50. Entry: CCc1ncncc1CNc1ncc(C#N)c(NC2CC(C)(O)C2(C)C)n1 (stereo not drawn) [Cmpd 135]
Completion: 6.10 to 7.00

Prompt: Could you do the same for CC1(C)CC(Nc2nc(NCCc3c[nH]c4cccnc34)ncc2C#N)CC[C@@H]1O (stereo partly drawn) , please?
Completion: 5.00 to 5.70

Prompt: Param item: CC1(C)C(O)C[C@@H]1Nc1nc(NCc2cncnc2OCCC(F)(F)F)ncc1C(F)(F)F (stereo partly drawn)
Completion: > 7.00

Prompt: What about CC1(C)[C@H](O)C[C@H]1Nc1nc(NCc2cncnc2OCCC(F)(F)F)ncc1C(F)(F)F ?
Completion: > 7.00

Prompt: CC1(C)C[C@H](Nc2nc(NCCc3c[nH]c4c(F)cccc34)ncc2C#N)CC[C@@H]1O , same question.
Completion: > 7.00

###

target: His-PKC-theta (Homo sapiens); construct: His; purchased Invitrogen; assay: PKC-theta Assay (384-well time resolved fluorescence, IMAP TR-FRET); assay type: biochemical; conditions: Table 2; read-out: Act. Level (IC50 in the PKC-theta Assay)
MEASUREMENT_NAME: IC50

INSERT INTO measurements (compound, measurement_name, meas_value) VALUES
  ('CC1(C)[C@@H](O)C[C@H]1Nc1nc(NCCc2ccc(-c3ccc(F)cc3)cc2)ncc1C#N', 'IC50', '100 to 800 nM');

Prompt: IC50 lookup needed for CC1(C)[C@@H](O)C[C@H]1Nc1nc(NCCc2ccc(S(N)(=O)=O)cc2)ncc1C#N , thanks.
Completion: 100 to 800 nM

Prompt: Also check CC1(C)C[C@H](O)CC[C@H]1Nc1nc(NCCc2cccc(Cl)c2)ncc1C#N
Completion: 100 to 800 nM

Prompt: Record: CC1(C)C[C@H](Nc2nc(NCC(=O)c3ccc(Cl)cc3)ncc2C#N)CC[C@@H]1O
Completion: 100 to 800 nM

###

Molecular target: His-PKC-theta (Homo sapiens, UniProt Q04759)
Construct: His; purchased Invitrogen
Sequence (Q04759 whole entry): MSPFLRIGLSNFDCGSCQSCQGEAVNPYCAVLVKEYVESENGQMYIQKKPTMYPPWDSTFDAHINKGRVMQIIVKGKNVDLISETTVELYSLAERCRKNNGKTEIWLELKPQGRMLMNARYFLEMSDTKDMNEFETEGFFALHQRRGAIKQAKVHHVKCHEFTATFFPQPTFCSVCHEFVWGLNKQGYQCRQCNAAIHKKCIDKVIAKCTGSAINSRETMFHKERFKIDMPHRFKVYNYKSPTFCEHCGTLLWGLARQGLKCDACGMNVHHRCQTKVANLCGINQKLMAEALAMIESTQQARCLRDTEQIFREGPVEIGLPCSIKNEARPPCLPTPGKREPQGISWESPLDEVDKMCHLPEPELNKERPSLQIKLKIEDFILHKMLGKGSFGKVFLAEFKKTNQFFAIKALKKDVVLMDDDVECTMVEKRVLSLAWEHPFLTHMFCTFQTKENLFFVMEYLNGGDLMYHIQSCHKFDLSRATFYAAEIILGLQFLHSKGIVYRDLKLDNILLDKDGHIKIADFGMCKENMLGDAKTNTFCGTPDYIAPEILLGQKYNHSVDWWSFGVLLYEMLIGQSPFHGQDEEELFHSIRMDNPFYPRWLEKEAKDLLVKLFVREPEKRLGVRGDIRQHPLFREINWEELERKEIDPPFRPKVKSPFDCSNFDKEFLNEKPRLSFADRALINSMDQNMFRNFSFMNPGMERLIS
Assay: PKC-theta Assay (384-well time resolved fluorescence, IMAP TR-FRET)
Format: biochemical
Conditions: read-out: Act. Level (IC50 in the PKC-theta Assay)
Method: PKC-theta Assay. A 384-well time resolved fluorescence assay was used to monitor PKC-theta activity. The PKC-theta assay was run in the following assay buffer: 50 mM HEPES pH 7.6, 10 mM MgCl2, 1 mM DTT, 0.01% Triton X-100, 0.01% BSA and 0.1 mM EDTA. […] The assay plates were then incubated overnight at room temperature and read on a Perkin-Elmer Envision Reader.
MEASUREMENT_NAME: IC50

Example entries begin here.
INSERT INTO results (compound, meas_value) VALUES
  ('CC(C)c1ncncc1CNc1ncc(C#N)c(N[C@H]2C[C@@H](CO)C2(C)C)n1', '100 to 800 nM'),
  ('CNC(=O)[C@H]1CC[C@@H](Nc2nc(NCc3cnccc3C(F)(F)F)ncc2C(F)(F)F)CC1', '< 100 nM'),
  ('CC1(C)C[C@H](Nc2nc(NCCc3cc(Cl)c[n+]([O-])c3)ncc2C#N)CC[C@@H]1O', '800 to 2000 nM');

Prompt: Please look up its IC50: CC1(C)C[C@H](Nc2nc(NCCc3cccc4cccnc34)ncc2C#N)CC[C@@H]1O
Completion: 100 to 800 nM

Prompt: Item: C[C@]1(O)CC2(C[C@H](Nc3nc(NCCC4C(=O)Nc5ccccc54)ncc3C#N)C2)C1 (some centres unmarked) [Cmpd 302]
Completion: 800 to 2000 nM

Prompt: How about CC1(C)C(Nc2nc(NCc3cncnc3OCCC(F)(F)F)ncc2C#N)C[C@H]1O (some centres unmarked) ?
Completion: < 100 nM

Prompt: Another: N#Cc1cnc(NCCc2ncccc2C(F)(F)F)nc1N[C@H]1CC[C@@H](O)CC1
Completion: 2000 to 10000 nM

Prompt: Now try CC1(C)[C@H](O)C[C@H]1Nc1nc(NCc2cnccc2C(F)(F)F)ncc1C(F)(F)F .
Completion: < 100 nM

###

molecular target: His-PKC-theta (Homo sapiens); construct: His; purchased Invitrogen; assay: PKC-theta Assay (384-well time resolved fluorescence, IMAP TR-FRET); assay type: biochemical; details: read-out: Act. Level (IC50 in the PKC-theta Assay)
pIC50: −log10 of the molar value.
MEASUREMENT_NAME: pIC50

INSERT INTO results (compound, meas_value) VALUES
  ('CC(F)(F)COc1ncncc1CNc1ncc(C#N)c(N[C@@H]2CCC[C@H](O)C2(C)C)n1', '> 7.00');

Shifting focus to the compound that follows.
Prompt: What value of measured pIC50 is listed for N#Cc1cnc(NCCC2(O)C(=O)Nc3ccccc32)nc1N[C@H]1CC[C@@H](O)CC1 (some centres unmarked) ?
Completion: 5.00 to 5.70

###

target: His-PKC-theta (Homo sapiens, UniProt Q04759); construct: His; purchased Invitrogen; assay: PKC-theta Assay (384-well time resolved fluorescence, IMAP TR-FRET); type: biochemical; settings: read-out: Act. Level (IC50 in the PKC-theta Assay)
MEASUREMENT_NAME: IC50

Record excerpt, results attached:
INSERT INTO results (molecule, test_target, meas_value) VALUES
  ('C[C@]1(O)CC[C@@H](Nc2nc(NCc3cncnc3-c3ccc(F)cc3)ncc2C#N)CC1', 'His-PKC-theta (Homo sapiens, UniProt Q04759)', '< 100 nM'),
  ('CC1(C)[C@@H](O)CCC[C@H]1Nc1nc(NCCC2C(=O)Nc3ccc(F)cc32)ncc1C#N (some centres unmarked)', 'His-PKC-theta (Homo sapiens, UniProt Q04759)', '< 100 nM'),
  ('CCOc1cc(CCNc2ncc(C#N)c(N[C@H]3CC[C@@H](O)CC3)n2)ccn1', 'His-PKC-theta (Homo sapiens, UniProt Q04759)', '2000 to 10000 nM'),
  ('Cc1cccnc1CCNc1ncc(C#N)c(N[C@@H]2CC[C@H](O)C(C)(C)C2)n1', 'His-PKC-theta (Homo sapiens, UniProt Q04759)', '2000 to 10000 nM'),
  ('COCc1noc(CCNc2ncc(C#N)c(N[C@@H]3CC(O)C3(C)C)n2)n1 (some centres unmarked)', 'His-PKC-theta (Homo sapiens, UniProt Q04759)', '2000 to 10000 nM');

Prompt: Item CC(F)(F)COc1ncncc1CNc1ncc(C#N)c(N[C@@H]2C[C@](C)(O)C2(C)C)n1 has what recorded IC50?
Completion: < 100 nM
